study.system: 5-HT7 (Homo sapiens, UniProt P34969)
Construct: expressed in transfected cells; host or cells: CHO cells
Sequence (P34969 whole entry): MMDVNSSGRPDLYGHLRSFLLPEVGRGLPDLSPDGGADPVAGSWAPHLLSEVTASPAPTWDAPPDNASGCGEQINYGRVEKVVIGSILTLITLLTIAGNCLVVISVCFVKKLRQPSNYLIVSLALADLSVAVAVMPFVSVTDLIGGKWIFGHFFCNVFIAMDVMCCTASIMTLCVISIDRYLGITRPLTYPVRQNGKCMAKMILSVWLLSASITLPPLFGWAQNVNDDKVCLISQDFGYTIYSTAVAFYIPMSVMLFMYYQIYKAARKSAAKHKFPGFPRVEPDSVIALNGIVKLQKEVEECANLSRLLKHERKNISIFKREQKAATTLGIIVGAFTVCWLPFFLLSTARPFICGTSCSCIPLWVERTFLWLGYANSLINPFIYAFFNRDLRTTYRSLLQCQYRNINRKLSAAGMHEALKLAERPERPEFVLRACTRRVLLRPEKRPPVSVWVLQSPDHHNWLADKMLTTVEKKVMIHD
test.method.notes: In vitro radioligand binding assay, 5-HT7, [3H]LSD
Set-up: concentration or dose not given beside the values
cond: human recombinant (CHO cells)
Below, each entry is listed with its recorded 5HT7 percent inhibition of specific binding.
Hi! Could you send only the number? It should be in %, unit omitted.

For orientation, consider the following solved cases.
{"given.smiles": "Fc1cccc2c1CCO[C@@H]2[C@@H]1CCN1", "study.system": "5-HT7 (Homo sapiens, UniProt P34969)", "observed.result": 74}
{"given.smiles": "Fc1cccc2c1CCO[C@@H]2[C@H]1CCN1", "study.system": "5-HT7 (Homo sapiens, UniProt P34969)", "observed.result": 69}

// next entry
(Q) Entry `Fc1ccc2c(c1)CCO[C@H]2[C@@H]1CCN1` : reported 5HT7 percent inhibition of specific binding = ?
(A) 96
